Target: hMrgpMRGPRX2 (Homo sapiens, UniProt Q96LB1)
Construct: expressed in transfected cells
Sequence (Q96LB1 whole entry): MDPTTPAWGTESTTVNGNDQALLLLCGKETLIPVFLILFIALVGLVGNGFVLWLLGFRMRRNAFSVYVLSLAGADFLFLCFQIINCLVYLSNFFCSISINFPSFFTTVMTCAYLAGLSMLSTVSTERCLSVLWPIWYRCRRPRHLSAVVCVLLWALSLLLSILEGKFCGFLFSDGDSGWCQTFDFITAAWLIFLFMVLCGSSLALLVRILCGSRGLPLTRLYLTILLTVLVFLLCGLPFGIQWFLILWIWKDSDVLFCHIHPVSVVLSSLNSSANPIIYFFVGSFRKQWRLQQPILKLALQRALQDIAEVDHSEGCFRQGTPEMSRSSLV
Assay: FLIPR intracellular calcium mobilization, antagonist activity in recombinant hMrgpMRGPRX2 expressing cells
Assay type: cell-based
Conditions: read-out: Human MrgprX2 Antagonist pIC50 (converted)
PARAMETER: IC50 (µM)

>>> measured_value("CCN(C[C@@H](O)C(F)(F)F)C(=O)Nc1cc(Oc2ccccc2F)ncn1")
0.692
>>> measured_value("CC1(C)C(C(=O)Nc2ccc(Oc3ccc(C#N)cc3F)cn2)C1(C)C")
0.02
>>> measured_value("Cn1ncc(-c2ccc(NC(=O)C3C(C)(C)C3(C)C)nc2)n1")
1.17
>>> measured_value("CC1(C)C(C(=O)Nc2cc(C(F)(F)F)ccn2)C1(C)C")
1.58
>>> measured_value("CC(C)C(=O)Nc1ccc(Oc2cc(F)cc(F)c2)cn1")
0.00631
>>> measured_value("CC1(C)C(C(=O)Nc2cnc(Oc3cc(F)cc(C#N)c3)cn2)C1(C)C")
0.0316
>>> measured_value("CC1(C)C(C(=O)Nc2ccc(-n3ccc(F)n3)cn2)C1(C)C")
0.00813
>>> measured_value("CC1(C)C(C(=O)Nc2cc(N3CCCC3)ccn2)C1(C)C")
7.94
>>> measured_value("CC(C)C(=O)Nc1ccc(Cc2ccccc2)cn1")
6.31
>>> measured_value("CCN(C[C@@H](O)C(F)(F)F)C(=O)Nc1ccc(Oc2cccc(F)c2F)cn1")
0.00372
>>> measured_value("CC(C)(CO)C(=O)Nc1ccc(Oc2cccc(F)c2)cn1")
3.98
>>> measured_value("CC1(C)C(C(=O)Nc2ccc(-n3cncn3)cn2)C1(C)C")
8.13
>>> measured_value("CN(C)c1ccc(NC(=O)C2C(C)(C)C2(C)C)nc1")
0.162

Where do these numbers come from? They come from patent US20230027929A1.
